B1: Intercellular adhesion molecule 5 (Homo sapiens), Q9UMF0 (parent)
chain: MPGPSPGLRRALLGLWAALGLGLFGLSAVSQEPFWADLQPRVAFVERGGSLWLNCSTNCPRPERGGLETSLRRNGTQRGLRWLARQLVDIREPETQPVCFFRCARRTLQARGLIRTFQRPDRVELMPLPPWQPVGENFTLSCRVPGAGPRASLTLTLLRGAQELIRRSFAGEPPRARGAVLTATVLARREDHGANFSCRAELDLRPHGLGLFENSSAPRELRTFSLSPDAPRLAAPRLLEVGSERPVSCTLDGLFPASEARVYLALGDQNLSPDVTLEGDAFVATATATASAEQEGARQLVCNVTLGGENRETRENVTIYSFPAPLLTLSEPSVSEGQMVTVTCAAGAQALVTLEGVPAAVPGQPAQLQLNATENDDRRSFFCDATLDVDGETLIKNRSAELRVLYAPRLDDSDCPRSWTWPEGPEQTLRCEARGNPEPSVHCARSDGGAVLALGLLGPVTRALSGTYRCKAANDQGEAVKDVTLTVEYAPALDSVGCPERITWLEGTEASLSCVAHGVPPPDVICVRSGELGAVIEGLLRVAREHAGTYRCEATNPRGSAAKNVAVTVEYGPRFEEPSCPSNWTWVEGSGRLFSCEVDGKPQPSVKCVGSGGATEGVLLPLAPPDPSPRAPRIPRVLAPGIYVCNATNRHGSVAKTVVVSAESPPEMDESTCPSHQTWLEGAEASALACAARGRPSPGVRCSREGIPWPEQQRVSREDAGTYHCVATNAHGTDSRTVTVGVEYRPVVAELAASPPGGVRPGGNFTLTCRAEAWPPAQISWRAPPGALNIGLSSNNSTLSVAGAMGSHGGEYECAATNAHGRHARRITVRVAGPWLWVAVGGAAGGAALLAAGAGLAFYVQSTACKKGEYNVQEAESSGEAVCLNGAGGGAGGAAGAEGGPEAAGGAAESPAEGEVFAIQLTSA

# Variants of: B1
# RUN CONDITIONS: with actn1_chick ACTN1, P05094
# Sequence (P05094 whole entry): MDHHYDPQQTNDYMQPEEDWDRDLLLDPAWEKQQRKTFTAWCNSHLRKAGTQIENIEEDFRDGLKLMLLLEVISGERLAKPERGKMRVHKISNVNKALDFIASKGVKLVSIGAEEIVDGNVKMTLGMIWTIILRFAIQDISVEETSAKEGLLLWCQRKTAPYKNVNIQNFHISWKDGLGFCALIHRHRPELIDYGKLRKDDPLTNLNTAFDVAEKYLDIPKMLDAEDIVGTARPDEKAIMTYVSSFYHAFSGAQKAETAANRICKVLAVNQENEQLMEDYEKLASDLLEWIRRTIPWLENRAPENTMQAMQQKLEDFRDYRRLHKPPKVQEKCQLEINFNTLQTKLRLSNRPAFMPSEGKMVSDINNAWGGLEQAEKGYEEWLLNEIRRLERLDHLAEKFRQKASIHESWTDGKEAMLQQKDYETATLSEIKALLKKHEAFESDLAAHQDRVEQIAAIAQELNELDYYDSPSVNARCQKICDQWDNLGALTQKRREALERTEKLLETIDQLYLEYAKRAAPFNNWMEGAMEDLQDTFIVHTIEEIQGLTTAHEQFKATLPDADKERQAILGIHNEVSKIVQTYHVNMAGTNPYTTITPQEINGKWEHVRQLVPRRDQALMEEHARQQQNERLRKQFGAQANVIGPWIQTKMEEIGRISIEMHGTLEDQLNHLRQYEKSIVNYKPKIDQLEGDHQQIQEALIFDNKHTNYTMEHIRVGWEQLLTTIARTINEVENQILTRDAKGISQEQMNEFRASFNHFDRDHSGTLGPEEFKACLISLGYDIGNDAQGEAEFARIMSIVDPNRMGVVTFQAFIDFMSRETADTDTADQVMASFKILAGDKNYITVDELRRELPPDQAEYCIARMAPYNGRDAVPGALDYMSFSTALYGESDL

{"MUTATION": "K867A", "effect of a mutation on the interaction": "disrupting interaction"}
{"MUTATION": "K866R", "effect of a mutation on the interaction": "decreasing interaction"}
{"MUTATION": "K866A", "effect of a mutation on the interaction": "decreasing interaction"}
{"MUTATION": "K867R", "effect of a mutation on the interaction": "decreasing interaction"}
{"MUTATION": "K866A;K867A", "effect of a mutation on the interaction": "disrupting interaction"}
